Where these numbers come from: patent US11760773B2

experiment: Comparative dog plasma PK of Int 1-4 versus gemcitabine (study k); type: in vivo; details: male beagle dog, after iv gemcitabine 5.29 mg/kg
MEASURE: clearance (mL/min/kg)
Only the number, expressed in mL/min/kg, is required.

Summary for this compound, Nc1ccn([C@@H]2O[C@H](CO)[C@@H](O)C2(F)F)c(=O)n1 [Gemcitabine, gemcitabine] : clearance is 11

====

assay: Comparative plasma PK of Compound 1 versus Int 1-4 in male CD-1 mice (study b); assay type: in vivo; settings: male, CD-1, mouse, iv, 10 mg/kg, after iv Int 1-4 10.0 mg/kg, Formulation 2, read-out: Vdss
MEASURE: Vd (L/kg)
Only the number, expressed in L/kg, is required.

Summary for this compound, COc1cc(OC)c2oc(COC(=O)Nc3ccn([C@@H]4O[C@H](CO)[C@@H](O)C4(F)F)c(=O)n3)cc2c1 [Int 1-4] : Vd is 2.3

====

test: Comparative plasma PK of Int 1-4 versus gemcitabine in mouse (study a); assay type: in vivo; settings: mouse; plasma, CD-1 mice, after iv gemcitabine 5.29 mg/kg; read-out: Vdss
MEASURE: Vd (L/kg)
Only the number, expressed in L/kg, is required.

Summary for this compound, Nc1ccn([C@@H]2O[C@H](CO)[C@@H](O)C2(F)F)c(=O)n1 [Gemcitabine, gemcitabine] : Vd is 1.84

====

# microsomal CLint annotations
experiment: Monkey liver S9 stability; type: in vitro ADME; conditions: monkey, liver S9, monkey liver S9; read-out: CLint Mean ± SE
Only the number, expressed in µL/min/mg, is required.

[
  {
    "MOLECULE": "COc1cc(OC)c2oc(COC(=O)Nc3ccn([C@@H]4O[C@H](CO)[C@@H](O)C4(F)F)c(=O)n3)cc2c1 [Int 1-4]",
    "MEASURE": "microsomal CLint",
    "ENDPOINT_UNIT": "µL/min/mg",
    "OBSERVED_VALUE": 15.5
  }
]

Next up:
Summary for this molecule, COc1cc2ccc(=O)oc2cc1O [Scopoletin, reference compound] : microsomal CLint is 55.6

====

assay: Comparative dog plasma PK of Int 1-4 versus gemcitabine (study k); type: in vivo; conditions: male beagle dog, after iv Int 1-4 10 mg/kg (study k), read-out: Vdss
MEASURE: Vd (L/kg)
Only the number, expressed in L/kg, is required.

Summary for this compound, COc1cc(OC)c2oc(COC(=O)Nc3ccn([C@@H]4O[C@H](CO)[C@@H](O)C4(F)F)c(=O)n3)cc2c1 [Int 1-4] : Vd is 0.58

====

experiment: Comparative dog plasma PK of Int 1-4 versus gemcitabine (study k); format: in vivo; details: male beagle dog, after iv gemcitabine 5.29 mg/kg, read-out: Vdss
MEASURE: Vd
Include the unit after the number when you answer.

Summary for this compound, "Nc1ccn([C@@H]2O[C@H](CO)[C@@H](O)C2(F)F)c(=O)n1" : Vd is 1.61 L/kg

====

experiment: Monkey liver S9 stability; assay type: in vitro ADME; conditions: monkey, liver S9, monkey liver S9, summary; read-out: S9 intrinsic clearance Clint
MEASURE: microsomal CLint

Summary for this molecule, "COc1cc(OC)c2oc(COC(=O)Nc3ccn([C@@H]4O[C@H](CO)[C@@H](O)C4(F)F)c(=O)n3)cc2c1" : microsomal CLint is < 2.5 µL/min/mg

====

assay: Plasma PK of Int 3-3 in CD-1 mice (study c); format: in vivo; conditions: mouse, after iv Int 3-3 8.8 mg/kg, read-out: MRT0-inf
MEASURE: MRT inf (h)
Only the number, expressed in h, is required.

[
  {
    "MOL": "Nc1ccn([C@@H]2O[C@H](CO)[C@@H](O)C2(F)F)c(=O)n1",
    "MRT inf, h": 1.69
  }
]

Next up:
Summary for this molecule, "[2H]C([2H])([2H])Oc1cc(OC([2H])([2H])[2H])c2oc(COC(=O)Nc3ccn([C@@H]4O[C@H](CO)[C@@H](O)C4(F)F)c(=O)n3)cc2c1" : MRT inf is 0.766

====

# MRT inf annotations
Assay: Comparative dog plasma PK of Int 1-4 versus gemcitabine (study k)
Format: in vivo
Conditions: male beagle dog, after iv Int 1-4 10 mg/kg (study k), read-out: MRT0-inf
Experimental: Objectives: to compare the plasma pharmacokinetics and stability of Int-4 in plasma following single intravenous infusion administration of Int 1-4 at 5 mg/kg and 10 mg/kg versus gemcitabine at 5 mg/kg in the male Beagle dog
Only the number, expressed in h, is required.

[
  {
    "COMPOUND": "COc1cc(OC)c2oc(COC(=O)Nc3ccn([C@@H]4O[C@H](CO)[C@@H](O)C4(F)F)c(=O)n3)cc2c1 [Int 1-4]",
    "OBSERVED_VALUE": 0.23
  }
]

Summary for this compound, Nc1ccn([C@@H]2O[C@H](CO)[C@@H](O)C2(F)F)c(=O)n1 [Gemcitabine, gemcitabine] : MRT inf is 2.45

====

# microsomal CLint annotations
test: Human liver S9 stability; format: in vitro ADME; settings: human, liver S9, human liver S9; read-out: CLint Mean ± SE
Only the number, expressed in µL/min/mg, is required.

[
  {
    "COMPOUND": "COc1cc2ccc(=O)oc2cc1O [Scopoletin, reference compound]",
    "microsomal CLint [µL/min/mg]": 33.8
  }
]

Summary for this compound, "COc1cc(OC)c2oc(COC(=O)Nc3ccn([C@@H]4O[C@H](CO)[C@@H](O)C4(F)F)c(=O)n3)cc2c1" : microsomal CLint is 2.22

====

assay: Comparative plasma PK of Compound 1 versus Int 1-4 in male CD-1 mice (study b); format: in vivo; settings: male, CD-1, mouse, iv, 23.2 mg/kg, after iv Compound 1 23.2 mg/kg, read-out: MRT0-inf
Counter-ions that a name gives are not always drawn.
MEASURE: MRT inf (min)
Only the number, expressed in min, is required.

Study these solved cases before continuing.
[
  {
    "MOLECULE": "COc1cc(OC)c2oc(COC(=O)Nc3ccn([C@@H]4O[C@H](COP(=O)(O)O)[C@@H](O)C4(F)F)c(=O)n3)cc2c1 [Compound 1, ammonium salt]",
    "MRT inf (min)": 2.73
  },
  {
    "MOLECULE": "Nc1ccn([C@@H]2O[C@H](CO)[C@@H](O)C2(F)F)c(=O)n1",
    "MRT inf (min)": 84
  }
]

Next up:
Summary for this molecule, "COc1cc(OC)c2oc(COC(=O)Nc3ccn([C@@H]4O[C@H](CO)[C@@H](O)C4(F)F)c(=O)n3)cc2c1" : MRT inf is 47.6

====

Assay: Comparative PK of Int 1-4 versus gemcitabine in rat plasma (study i)
Assay type: in vivo, Sprague-Dawley rats
Conditions: plasma, Sprague-Dawley rat, after iv Int 1-4 10.0 mg/kg; read-out: Vdss
Source text: PK measurements: compare PK parameters C0, CL, Vdss, Cmax, tmax, t1/2, AUC(0-t), AUC(0-inf), MRT(0-t), MRT(0-inf) for Int 1-4 and gemcitabine.
MEASURE: Vd (L/kg)
Only the number, expressed in L/kg, is required.

Summary for this compound, COc1cc(OC)c2oc(COC(=O)Nc3ccn([C@@H]4O[C@H](CO)[C@@H](O)C4(F)F)c(=O)n3)cc2c1 [Int 1-4] : Vd is 0.905

====

test: Metabolic stability in liver hepatocytes, across species; assay type: in vitro ADME; settings: mouse, dog, monkey, rat highest, human lowest, read-out: intrinsic clearance values Cint
MEASURE: microsomal CLint

Summary for this molecule, "COc1cc(OC)c2oc(COC(=O)Nc3ccn([C@@H]4O[C@H](CO)[C@@H](O)C4(F)F)c(=O)n3)cc2c1" : microsomal CLint is 3 to 8 µL/min/mg

====

# half-life annotations
test: Human liver S9 stability; assay type: in vitro ADME; settings: human liver S9; read-out: t1/2 Mean ± SE
Include the unit after the number when you answer.

[
  {
    "MOLECULE": "COc1cc2ccc(=O)oc2cc1O [Scopoletin, reference compound]",
    "half-life": "0.137 h"
  }
]

Next up:
Summary for this molecule, COc1cc(OC)c2oc(COC(=O)Nc3ccn([C@@H]4O[C@H](CO)[C@@H](O)C4(F)F)c(=O)n3)cc2c1 [Int 1-4] : half-life is 2.08 h

====

experiment: Comparative plasma PK of Compound 1 versus Int 1-4 in male CD-1 mice (study b); format: in vivo; details: male, CD-1, mouse, iv, 10 mg/kg, after iv Int 1-4 10.0 mg/kg, Formulation 1, read-out: MRT0-last
# MRT last annotations
Include the unit after the number when you answer.

[
  {
    "MOL": "COc1cc(OC)c2oc(COC(=O)Nc3ccn([C@@H]4O[C@H](CO)[C@@H](O)C4(F)F)c(=O)n3)cc2c1",
    "MRT last": "43.4 min"
  }
]

Summary for this compound, "Nc1ccn([C@@H]2O[C@H](CO)[C@@H](O)C2(F)F)c(=O)n1" : MRT last is 69 min
